Test: Cytotoxicity against mouse NCTC clone 929 cells assessed as viable cells at 3.125 ug/ml incubated for 24 hrs by CCK-8 assay relative to control
Type: toxicity, cell-based
Settings: NCTC clone 929 (L929) cells, at 3.125 µg/mL, read-out: Activity

{"columns": ["smi", "viability at 24 h, 3.125 ug/ml, %"],
 "data": [
  ["COC(=O)[C@H](CCCNC(=N)N)NC(=O)[C@H](CCCNC(=N)N)NC(=O)COc1ccc(S(=O)(=O)c2ccc(OC/C=C(/C)CCC=C(C)C)cc2)cc1", 92.6]
]}

---

Experiment: Cytotoxicity against HEK293 cells assessed as viable cells at 6.25 ug/ml incubated for 24 hrs by CCK-8 assay relative to control
Format: toxicity, cell-based
Conditions: human, at 6.25 µg/mL, read-out: Activity

{"columns": ["smi", "viability at 24 h, 6.25 ug/ml / %"],
 "data": [
  ["COC(=O)[C@H](CCCNC(=N)N)NC(=O)[C@H](CCCNC(=N)N)NC(=O)COc1ccc(S(=O)(=O)c2ccc(OC/C=C(/C)CCC=C(C)C)cc2)cc1", 96.1]
]}
